For each of the compounds below, state its AC50.
biological target: Androgen receptor (Rattus norvegicus); assay type: functional; also: assay procedure not described here
Sequence (P15207 whole entry S389L): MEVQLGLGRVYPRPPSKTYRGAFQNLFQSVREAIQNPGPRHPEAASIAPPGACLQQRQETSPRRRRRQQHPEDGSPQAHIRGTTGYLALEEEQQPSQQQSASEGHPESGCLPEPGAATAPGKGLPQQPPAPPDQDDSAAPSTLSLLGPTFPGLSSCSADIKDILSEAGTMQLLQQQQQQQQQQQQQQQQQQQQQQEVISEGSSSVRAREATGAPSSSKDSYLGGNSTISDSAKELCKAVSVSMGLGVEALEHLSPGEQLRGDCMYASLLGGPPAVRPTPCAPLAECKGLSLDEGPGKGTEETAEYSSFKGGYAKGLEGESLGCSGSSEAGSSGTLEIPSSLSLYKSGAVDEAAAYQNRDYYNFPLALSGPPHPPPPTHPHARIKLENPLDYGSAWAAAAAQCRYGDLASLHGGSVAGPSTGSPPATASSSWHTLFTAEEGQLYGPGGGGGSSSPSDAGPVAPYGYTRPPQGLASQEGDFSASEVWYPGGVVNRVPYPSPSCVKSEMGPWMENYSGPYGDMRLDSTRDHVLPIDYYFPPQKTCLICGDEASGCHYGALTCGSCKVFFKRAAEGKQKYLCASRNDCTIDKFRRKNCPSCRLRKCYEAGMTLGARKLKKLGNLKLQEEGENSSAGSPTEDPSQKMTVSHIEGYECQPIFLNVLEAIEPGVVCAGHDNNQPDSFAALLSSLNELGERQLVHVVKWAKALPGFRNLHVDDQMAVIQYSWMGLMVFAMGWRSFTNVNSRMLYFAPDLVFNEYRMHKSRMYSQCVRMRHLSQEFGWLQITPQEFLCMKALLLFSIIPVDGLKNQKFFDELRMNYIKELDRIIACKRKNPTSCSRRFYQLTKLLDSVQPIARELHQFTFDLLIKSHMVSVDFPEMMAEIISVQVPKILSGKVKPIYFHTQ

C=C(C)[C@@H]1CCC(C)=C[C@H]1c1c(O)cc(CCCCC)cc1O: > 30 µM

For every record below, what is its AC50?
1. COc1ccc(Cc2nccc3cc(OC)c(OC)cc23)cc1OC
2. CC(=N)N1CC[C@H](SC2=C(C(=O)O)N3C(=O)[C@H]([C@@H](C)O)[C@H]3C2)C1
3. CC(C)(C)NCC(O)c1cc(Cl)c(N)c(Cl)c1 (stereo not given)
4. CC[C@@H](CO)NC(=O)[C@@H]1C=C2c3cccc4[nH]cc(c34)C[C@H]2N(C)C1

### Response
["> 30 µM", "> 300 µM", "> 30 µM", "18 µM"]

* * *

For each of the molecules below, state its AC50.
Molecular target: Peroxisome proliferator-activated receptor gamma (Homo sapiens); also: assay procedure not described here
Sequence (P37231 whole entry): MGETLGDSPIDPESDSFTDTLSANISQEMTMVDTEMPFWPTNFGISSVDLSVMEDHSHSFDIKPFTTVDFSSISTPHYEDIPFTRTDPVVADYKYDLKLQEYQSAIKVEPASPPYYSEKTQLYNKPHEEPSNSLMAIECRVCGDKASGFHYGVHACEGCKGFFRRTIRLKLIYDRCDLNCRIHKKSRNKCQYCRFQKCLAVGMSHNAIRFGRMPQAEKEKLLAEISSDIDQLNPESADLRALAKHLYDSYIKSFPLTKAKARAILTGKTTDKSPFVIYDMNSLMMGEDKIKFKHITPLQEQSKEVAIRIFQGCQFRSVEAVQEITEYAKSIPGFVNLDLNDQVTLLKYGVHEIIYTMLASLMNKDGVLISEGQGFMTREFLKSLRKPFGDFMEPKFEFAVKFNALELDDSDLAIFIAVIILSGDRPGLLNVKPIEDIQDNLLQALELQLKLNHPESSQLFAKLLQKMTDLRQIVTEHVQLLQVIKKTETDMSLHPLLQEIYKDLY
Type: functional

CC(=N)N1CC[C@H](SC2=C(C(=O)O)N3C(=O)[C@H]([C@@H](C)O)[C@H]3C2)C1: > 300 µM
CS(=O)(=O)OCCCCOS(C)(=O)=O: > 30 µM
CC1(C)O[C@@H]2C[C@H]3[C@@H]4C[C@H](F)C5=CC(=O)C=C[C@]5(C)[C@H]4[C@@H](O)C[C@]3(C)[C@]2(C(=O)CO)O1 [FLUNISOLIDE]: > 30 µM
Cc1ccc(=O)n(-c2ccccc2)c1: > 30 µM
CCN(CC)CCOC(=O)c1ccc(N)cc1Cl: > 30 µM
CN(C)c1cc(CNCC(C)(C)C)c(O)c2c1C[C@H]1C[C@H]3[C@H](N(C)C)C(O)=C(C(N)=O)C(=O)[C@@]3(O)C(O)=C1C2=O: > 30 µM

For every record below, what is its AC50?
1. O=C1NC(=O)C(c2ccccc2)(c2ccccc2)N1
2. CO/N=C(\C(=O)N[C@@H]1C(=O)N2C(C(=O)O)=C(COC(N)=O)CS[C@H]12)c1ccco1

### Response
1. > 30 µM
2. > 30 µM

* * *

target: Muscarinic acetylcholine receptor M1 (Homo sapiens); assay type: functional; also: assay procedure not described here
Sequence (P11229 whole entry): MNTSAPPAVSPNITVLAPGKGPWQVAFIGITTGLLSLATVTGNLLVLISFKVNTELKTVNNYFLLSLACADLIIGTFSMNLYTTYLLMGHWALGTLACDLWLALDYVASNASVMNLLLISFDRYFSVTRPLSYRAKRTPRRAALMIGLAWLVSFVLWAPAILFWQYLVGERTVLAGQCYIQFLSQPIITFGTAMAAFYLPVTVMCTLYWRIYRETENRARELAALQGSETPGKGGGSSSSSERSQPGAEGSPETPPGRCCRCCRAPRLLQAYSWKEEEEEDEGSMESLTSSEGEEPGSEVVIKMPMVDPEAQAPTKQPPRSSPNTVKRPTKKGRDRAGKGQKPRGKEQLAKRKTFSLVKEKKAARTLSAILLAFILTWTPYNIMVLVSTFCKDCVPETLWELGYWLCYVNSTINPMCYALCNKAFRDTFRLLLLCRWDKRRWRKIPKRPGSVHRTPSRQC
parameter: AC50

Reference set, count: 3
CC(NCCc1ccc(O)cc1)C(O)c1ccc(O)cc1 (centres undefined): > 30 µM
CNC[C@H](O)c1cccc(O)c1: > 10 µM
Clc1ccc2c(c1)C(c1ccccc1)=NCc1nncn1-2: > 10 µM

For every record below, what is its AC50?
1. Cc1ccc(NC(=O)C2(c3ccc4c(c3)OC(F)(F)O4)CC2)nc1-c1cccc(C(=O)O)c1
2. CC(=O)OCC(=O)[C@@]1(O)CC[C@H]2[C@@H]3CCC4=CC(=O)CC[C@]4(C)C3=CC[C@@]21C [ANECORTAVE ACETATE]

### Response
1. > 30 µM
2. > 10 µM

* * *

The next entries give measured AC50 for Neuronal acetylcholine receptor subunit alpha-4 (Homo sapiens).

C[C@]1(COc2ccc(N3CCC(Oc4ccc(OC(F)(F)F)cc4)CC3)cc2)Cn2cc([N+](=O)[O-])nc2O1: > 10 µM
O=C1Nc2ccc(Cl)cc2C(c2ccccc2)=NC1O (stereo not drawn): > 10 µM
CCN(CC)C(=O)C1(c2ccccc2)CC1CN (stereo not drawn): > 30 µM
C[C@H]1C[C@H]2[C@@H]3CCC4=CC(=O)C=C[C@]4(C)[C@@]3(Cl)[C@@H](O)C[C@]2(C)[C@@]1(O)C(=O)CO: > 10 µM
CC[C@H]1OC(=O)[C@H](C)[C@@H](O[C@H]2C[C@@](C)(OC)[C@@H](O)[C@H](C)O2)[C@H](C)[C@@H](O[C@@H]2O[C@H](C)C[C@H](N(C)C)[C@H]2O)[C@](C)(OC)C[C@@H](C)C(=O)[C@H](C)[C@@H](O)[C@]1(C)O: > 30 µM
N=C(N)NCCCCCCC(=O)NC(O)C(=O)NCCCCNCCCN (stereo not drawn): > 30 µM

For every record below, what is its AC50?
1. CN(C)c1cc(NC(=O)CNC(C)(C)C)c(O)c2c1C[C@H]1C[C@H]3[C@H](N(C)C)C(O)=C(C(N)=O)C(=O)[C@@]3(O)C(O)=C1C2=O
2. CCOc1cc(CC(=O)N[C@@H](CC(C)C)c2ccccc2N2CCCCC2)ccc1C(=O)O [REPAGLINIDE]

### Response
1. > 30 µM
2. > 30 µM

* * *

The next entries give measured AC50 for Sodium-dependent dopamine transporter (Homo sapiens).

Reference set, count: 5
C=CC(N)CCC(=O)O (centres undefined) [VIGABATRIN]: 19.5 µM
CC(C)=CCOc1ccc(/C=C/C(=O)c2ccc(OCC=C(C)C)cc2OCC(=O)O)cc1 [SOFALCONE]: 13 µM
Cc1ccc(NC(=O)C2(c3ccc4c(c3)OC(F)(F)O4)CC2)nc1-c1cccc(C(=O)O)c1 [LUMACAFTOR]: > 30 µM
N=C(N)NCCCCCCC(=O)NC(O)C(=O)NCCCCNCCCN (centres undefined): > 30 µM
CO[C@@]1(NC(=O)Cc2cccs2)C(=O)N2C(C(=O)O)=C(COC(N)=O)CS[C@@H]21 [CEFOXITIN]: > 30 µM

For every record below, what is its AC50?
1. CNC(=O)Oc1ccc2c(c1)[C@]1(C)CCN(C)[C@@H]1N2C [PHYSOSTIGMINE]
2. CCCCC1(CC)C(=O)NC(=O)NC1=O [BUTETHAL]
3. CC(CCc1ccccc1)NC(C)C(O)c1ccc(O)cc1 (centres undefined) [NYLIDRIN]
4. Cc1cnc(NC(=O)C2=C(O)c3ccccc3S(=O)(=O)N2C)s1 [MELOXICAM]
5. COc1cccc(N(C)C(=S)Oc2ccc3c(c2)CCCC3)n1 [LIRANAFTATE]
6. CO/N=C(\C(=O)N[C@@H]1C(=O)N2C(C(=O)O)=C(COC(N)=O)CS[C@H]12)c1ccco1 [CEFUROXIME]
7. Nc1ccn([C@@H]2O[C@H](CO)[C@@H](O)C2(F)F)c(=O)n1 [GEMCITABINE]
8. C#Cc1cccc(Nc2ncnc3cc(OCCOC)c(OCCOC)cc23)c1 [ERLOTINIB]

### Response
1. > 30 µM
2. > 30 µM
3. 1.44 µM
4. > 10 µM
5. > 30 µM
6. > 30 µM
7. > 30 µM
8. > 30 µM

For every record below, what is its AC50?
1. COc1ccc2c(c1)[C@]13CCCC[C@@H]1[C@H](C2)N(C)CC3 [DEXTROMETHORPHAN]
2. NS(=O)(=O)c1cc(C(=O)O)cc(N2CCCC2)c1Oc1ccccc1 [PIRETANIDE]
3. CNC[C@H](O)c1cccc(O)c1 [PHENYLEPHRINE]

### Response
> 10 µM
> 30 µM
> 10 µM

* * *

The next entries give measured AC50 for Melanocortin receptor 3 (Homo sapiens).

Reference set, count: 8
CN(C)c1cc(NC(=O)CNC(C)(C)C)c(O)c2c1C[C@H]1C[C@H]3[C@H](N(C)C)C(O)=C(C(N)=O)C(=O)[C@@]3(O)C(O)=C1C2=O [TIGECYCLINE]: > 30 µM
CC(=O)/N=c1/sc(S(N)(=O)=O)nn1C [METHAZOLAMIDE]: > 10 µM
Nc1ccc(C(=O)O)c(O)c1 [AMINOSALICYLIC ACID]: > 30 µM
OCCN1CCN(CC/C=C2/c3ccccc3Sc3ccc(Cl)cc32)CC1 [ZUCLOPENTHIXOL]: > 10 µM
CCCN(CC)C(CC)C(=O)Nc1c(C)cccc1C (centres undefined) [ETIDOCAINE]: > 30 µM
NC(=O)c1ncn([C@@H]2O[C@H](CO)[C@@H](O)[C@H]2O)n1 [RIBAVIRIN]: > 10 µM
CC[N+]1(C)CCCC(OC(=O)C(O)(c2ccccc2)c2ccccc2)C1 (centres undefined) [PIPENZOLATE]: > 30 µM
CNCCCC1c2ccccc2C=Cc2ccccc21 [PROTRIPTYLINE]: > 10 µM

### Prompt Identify measured AC50 associated with CC(=O)c1ccc2c(c1)N(CCCN1CCC(CCO)CC1)c1ccccc1S2 [PIPERACETAZINE]
### Response > 30 µM
